Listing of entries alongside the reported AUC(0-inf).
Assay: Pharmacokinetic analysis in mice after I.V. and oral administration
Format: in vivo, mouse
Conditions: mouse, plasma, po; P.O, 20 mg/Kg, male CD-1 mice
Description: Compounds were administered to 5-week-old male CD-1 mice through 1 mg/kg tail vein administration (administration volume of 5 mL/kg), 20 mg/kg oral administration, and 100 mg/kg oral administration, respectively. Three mice were used for each independent experiment. Blood samples were taken in an amount of 20 μL to 30 μL via the saphenous vein at 5, 15, 30, 60, 120, 180, 360, and 1440 minutes. In addition, pharmacokinetic parameters were calculated from non-compartmental analysis using Win Non-lin. […]
READOUT_NAME: AUC(0-inf) (ng·h/mL)

In [3]: df
Out[3]:
                                   compound  measurement
0  O=C(Oc1cc(O)ccc1C(=O)/C=C/c1ccc(O)c(O)c1)c1ccccc1 [compound 14a]          141
1  O=C(/C=C/c1ccc(O)c(O)c1)c1ccc(O)cc1O [compound 1, reference compound]           21

Origin of measurements: patent US20230099567A1
